Source listed as the supplement of paper PMC9112550.

system: Escherichia coli TOP10; assay: shrunken log2 fold change of peptide-encoding DNA abundance (4.5 h post-induction vs induction); higher = less antimicrobial activity (less host growth inhibition); conditions: time post-induction: 4.5 h; library: site-saturation at positions 5, 18, 19, 20
Quick list: shrunken log2 fold change per entry.

{"chain": "RRIRSRPPRLPRPRPRPMISPRP", "result": -0.453}

Provide value of shrunken log2 fold change for this record tested with Escherichia coli TOP10: "RRIRDRPPRLPRPRPRPEDLPRP"
0.902

Provide value of shrunken log2 fold change for this record tested with Escherichia coli TOP10: "RRIRSRPPRLPRPRPRPIMIPRP"
-0.426

###

tested on: Escherichia coli TOP10; experiment: shrunken log2 fold change of peptide-encoding DNA abundance (4.5 h post-induction vs induction); higher = less antimicrobial activity (less host growth inhibition); conditions: time post-induction: 4.5 h; library: site-saturation at positions 5, 18, 19, 20
recorded_metric: shrunken log2 fold change
Please state the value as a number alone, without comment.

Consider the following illustrative entries.
{"chain": "RRIRRRPPRLPRPRPRPNYLPRP", "shrunken log2 fold change": 0.305}
{"chain": "RRIRPRPPRLPRPRPRPGQWPRP", "shrunken log2 fold change": 0.236}
{"chain": "RRIRLRPPRLPRPRPRPPQRPRP", "shrunken log2 fold change": 0.26}
{"chain": "RRIRQRPPRLPRPRPRPYLMPRP", "shrunken log2 fold change": -1.39}
{"chain": "RRIRERPPRLPRPRPRPSQAPRP", "shrunken log2 fold change": 0.151}
{"chain": "RRIRQRPPRLPRPRPRPILEPRP", "shrunken log2 fold change": -0.536}

Fill blank: measured shrunken log2 fold change of the sequence "RRIRIRPPRLPRPRPRPIHQPRP" is ____.
-1.14

Fill blank: measured shrunken log2 fold change of the sequence "RRIRMRPPRLPRPRPRPDPRPRP" is ____.
0.104

###

system: Escherichia coli TOP10; assay: shrunken log2 fold change of peptide-encoding DNA abundance (4.5 h post-induction vs induction); higher = less antimicrobial activity (less host growth inhibition); conditions: time post-induction: 4.5 h; library: site-saturation at positions 5, 18, 19, 20
recorded_metric: shrunken log2 fold change
Please state the value as a number alone, without comment.

Consider the following illustrative entries.
{"chain": "RRIRSRPPRLPRPRPRPMRGPRP", "subject_of_test": "Escherichia coli TOP10", "shrunken log2 fold change": 0.944}
{"chain": "RRIRFRPPRLPRPRPRPWFGPRP", "subject_of_test": "Escherichia coli TOP10", "shrunken log2 fold change": -0.191}
{"chain": "RRIRSRPPRLPRPRPRPCPAPRP", "subject_of_test": "Escherichia coli TOP10", "shrunken log2 fold change": -0.271}
{"chain": "RRIRERPPRLPRPRPRPWWHPRP", "subject_of_test": "Escherichia coli TOP10", "shrunken log2 fold change": -0.523}
{"chain": "RRIRGRPPRLPRPRPRPVRLPRP", "subject_of_test": "Escherichia coli TOP10", "shrunken log2 fold change": 0.525}

Fill blank: measured shrunken log2 fold change of the sequence "RRIRWRPPRLPRPRPRPNHAPRP" is ____.
0.601

Fill blank: measured shrunken log2 fold change of the sequence "RRIRCRPPRLPRPRPRPPIIPRP" is ____.
-0.294

Fill blank: measured shrunken log2 fold change of the sequence "RRIRSRPPRLPRPRPRPYVSPRP" is ____.
-0.136

Fill blank: measured shrunken log2 fold change of the sequence "RRIRERPPRLPRPRPRPRRKPRP" is ____.
0.11

###

tested on: Escherichia coli TOP10; assay: shrunken log2 fold change of peptide-encoding DNA abundance (4.5 h post-induction vs induction); higher = less antimicrobial activity (less host growth inhibition); details: time post-induction: 4.5 h; library: site-saturation at positions 5, 18, 19, 20
recorded_metric: shrunken log2 fold change
Please state the value as a number alone, without comment.

Consider the following illustrative entries.
{"chain": "RRIRQRPPRLPRPRPRPPLDPRP", "quantitative_readout": 0.685}
{"chain": "RRIRARPPRLPRPRPRPVTCPRP", "quantitative_readout": 0.0514}
{"chain": "RRIRKRPPRLPRPRPRPMEKPRP", "quantitative_readout": -0.0153}
{"chain": "RRIRSRPPRLPRPRPRPMFNPRP", "quantitative_readout": -0.258}
{"chain": "RRIRIRPPRLPRPRPRPGNWPRP", "quantitative_readout": -0.35}
{"chain": "RRIRARPPRLPRPRPRPQTGPRP", "quantitative_readout": 0.242}

Fill blank: measured shrunken log2 fold change of the sequence "RRIRQRPPRLPRPRPRPWIDPRP" is ____.
-0.0353

Fill blank: measured shrunken log2 fold change of the sequence "RRIRIRPPRLPRPRPRPGPEPRP" is ____.
0.342

Fill blank: measured shrunken log2 fold change of the sequence "RRIRERPPRLPRPRPRPFMWPRP" is ____.
-0.262

Fill blank: measured shrunken log2 fold change of the sequence "RRIRIRPPRLPRPRPRPVYTPRP" is ____.
-0.346

Fill blank: measured shrunken log2 fold change of the sequence "RRIRWRPPRLPRPRPRPFRFPRP" is ____.
-0.0501

Fill blank: measured shrunken log2 fold change of the sequence "RRIRDRPPRLPRPRPRPDYFPRP" is ____.
-0.052

Fill blank: measured shrunken log2 fold change of the sequence "RRIRCRPPRLPRPRPRPEVFPRP" is ____.
0.00979

Fill blank: measured shrunken log2 fold change of the sequence "RRIRCRPPRLPRPRPRPGAQPRP" is ____.
0.312

Fill blank: measured shrunken log2 fold change of the sequence "RRIRPRPPRLPRPRPRPHGLPRP" is ____.
0.026

###

tested on: Escherichia coli TOP10; assay: shrunken log2 fold change of peptide-encoding DNA abundance (4.5 h post-induction vs induction); higher = less antimicrobial activity (less host growth inhibition); conditions: time post-induction: 4.5 h; library: site-saturation at positions 5, 18, 19, 20
Rule: shrunken log2 fold change of -0.02 or more gives class 1; anything lower gives class 0.

Please indicate if the recorded shrunken log2 fold change for "RRIRRRPPRLPRPRPRPKAKPRP" meets or exceeds -0.02.
class 1

###

tested on: Escherichia coli TOP10; assay: shrunken log2 fold change of peptide-encoding DNA abundance (4.5 h post-induction vs induction); higher = less antimicrobial activity (less host growth inhibition); details: time post-induction: 4.5 h; library: site-saturation at positions 5, 18, 19, 20
Rule: shrunken log2 fold change of 0.09 or more gives Y; anything lower gives N.

Consider the following illustrative entries.
{"chain": "RRIRPRPPRLPRPRPRPVYHPRP", "subject_of_test": "Escherichia coli TOP10", "cat": "N"}
{"chain": "RRIRHRPPRLPRPRPRPHEEPRP", "subject_of_test": "Escherichia coli TOP10", "cat": "N"}
{"chain": "RRIRARPPRLPRPRPRPCDIPRP", "subject_of_test": "Escherichia coli TOP10", "cat": "N"}
{"chain": "RRIRQRPPRLPRPRPRPHKVPRP", "subject_of_test": "Escherichia coli TOP10", "cat": "N"}
{"chain": "RRIRVRPPRLPRPRPRPPYDPRP", "subject_of_test": "Escherichia coli TOP10", "cat": "N"}
{"chain": "RRIRYRPPRLPRPRPRPPAEPRP", "subject_of_test": "Escherichia coli TOP10", "cat": "Y"}

Please indicate if the recorded shrunken log2 fold change for "RRIRTRPPRLPRPRPRPHCEPRP" meets or exceeds 0.09.
N

Please indicate if the recorded shrunken log2 fold change for "RRIRTRPPRLPRPRPRPAVTPRP" meets or exceeds 0.09.
Y

Please indicate if the recorded shrunken log2 fold change for "RRIRGRPPRLPRPRPRPFLKPRP" meets or exceeds 0.09.
Y

Please indicate if the recorded shrunken log2 fold change for "RRIRVRPPRLPRPRPRPNNVPRP" meets or exceeds 0.09.
N

Please indicate if the recorded shrunken log2 fold change for "RRIRQRPPRLPRPRPRPVRNPRP" meets or exceeds 0.09.
N

Please indicate if the recorded shrunken log2 fold change for "RRIRVRPPRLPRPRPRPEFRPRP" meets or exceeds 0.09.
Y

Please indicate if the recorded shrunken log2 fold change for "RRIRKRPPRLPRPRPRPSDQPRP" meets or exceeds 0.09.
Y

Please indicate if the recorded shrunken log2 fold change for "RRIRMRPPRLPRPRPRPCISPRP" meets or exceeds 0.09.
N

###

system: Escherichia coli TOP10; assay: shrunken log2 fold change of peptide-encoding DNA abundance (4.5 h post-induction vs induction); higher = less antimicrobial activity (less host growth inhibition); details: time post-induction: 4.5 h; library: site-saturation at positions 5, 18, 19, 20;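 also: peptides expressed intracellularly from a pBAD plasmid library in pooled LB shake-flask culture, induced with 0.3% L-arabinose, DNA abundance read by NGS, three biological replicates, DESeq2 with apeglm shrinkage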
recorded_metric: shrunken log2 fold change
Please state the value as a number alone, without comment.

Consider the following illustrative entries.
{"chain": "RRIRARPPRLPRPRPRPHLQPRP", "shrunken log2 fold change": 0.439}
{"chain": "RRIRQRPPRLPRPRPRPLWHPRP", "shrunken log2 fold change": -0.107}
{"chain": "RRIRERPPRLPRPRPRPCVWPRP", "shrunken log2 fold change": 0.0291}
{"chain": "RRIRKRPPRLPRPRPRPTVTPRP", "shrunken log2 fold change": 0.229}
{"chain": "RRIRIRPPRLPRPRPRPQLCPRP", "shrunken log2 fold change": -0.222}
{"chain": "RRIRMRPPRLPRPRPRPCYKPRP", "shrunken log2 fold change": -0.145}
{"chain": "RRIRERPPRLPRPRPRPRGEPRP", "shrunken log2 fold change": -0.023}
{"chain": "RRIRQRPPRLPRPRPRPQNRPRP", "shrunken log2 fold change": -0.0176}

// switching to the query sequence
Provide value of shrunken log2 fold change for this record tested with Escherichia coli TOP10: "RRIRKRPPRLPRPRPRPIEDPRP"
-0.0345
